The origin of these recorded values is patent US20060069132A1.

system: velvetleaf; test: Test B pre-/postemergence herbicide test; type: in vivo, Abutilon theophrasti; settings: Postemergence, 500 g ai/ha; scale 0 (no effect) to 100 (complete control)
Velvetleaf plant response rating of 40 or higher: rule met. Under 40: rule not met.

// known answers, use as guide
Substance smiles	Class name
Cc1nn(C(C)C)nc1C(=O)Nc1cccc(C(=O)N2CC=CC2)c1	rule not met
CCc1nn(C(C)(C)C)nc1C(=S)Nc1cccc(C(=S)N(C)C)c1	rule met
CC(C)(C)n1nc(Br)c(C(=O)Nc2cccc(C(=O)NC3CC3)c2)n1	rule not met
CCN(CC)C(=O)c1cccc(NC(=O)c2nn(C(C)(C)C)nc2C)n1	rule not met

// inclusive: Velvetleaf plant response rating at least 40? input: CCc1nn(C(C)(C)C)nc1C(=O)Nc1cccc(C(=O)N(C)CC)c1
rule met

// inclusive: Velvetleaf plant response rating at least 40? input: C=Cc1nn(C(C)(C)C)nc1C(=O)Nc1cccc(C(=O)N(C)C)c1
rule met

// inclusive: Velvetleaf plant response rating at least 40? input: CCNC(=O)c1cncc(NC(=O)c2nn(C(C)(C)C)nc2C)c1
rule not met

// inclusive: Velvetleaf plant response rating at least 40? input: CCOC(=O)c1ccc(F)c(NC(=O)c2nn(C(C)(C)CC)nc2CC)c1
rule not met

###

System: cocklebur
Experiment: Test B pre-/postemergence herbicide test
Assay type: in vivo, Xanthium strumarium
Conditions: preemergence, 125 g ai/ha; 0 to 100 scale, 0 is no effect, 100 is complete control
Procedure: […] At the same time, plants selected from these crop and weed species and also blackgrass (Alopecurus myosuroides Huds.), wheat (Triticum aestivum L.) and wild oat (Avena fatua L.) were treated with postemergence applications of test chemicals formulated in the same manner. […] Treated plants and controls were maintained in a greenhouse for 13 to 15 days, after which time all species were compared to controls and visually evaluated. […]
Property measured: Plant response rating, Cocklebur
Number, no unit, nothing else.

// below: answered compounds
Substance smiles	Observed value
CCCCOC(=O)c1cccc(NC(=O)c2cc(C(C)(C)C)nn2CC)c1	0
C=Cn1nc(C(C)(C)C)cc1C(=O)Nc1cccc(C(C)=O)c1	10

Please list Plant response rating, Cocklebur recorded for the compound CCN(CC)C(=O)c1cc(NC(=O)c2cc(C(C)(C)C)nn2CC)ccc1F
0

Please list Plant response rating, Cocklebur recorded for the compound CCn1nc(C(C)(C)C)cc1C(=O)Nc1cccc(C(N)=O)n1
30

Please list Plant response rating, Cocklebur recorded for the compound CCOC(=O)c1cccc(NC(=O)c2cc(C(C)(C)C)nn2CC)c1OC
0

Please list Plant response rating, Cocklebur recorded for the compound CCn1nc(C(C)(C)C)cc1C(=O)Nc1cccc2c1CCN(C1CC1)C2=O
0

Please list Plant response rating, Cocklebur recorded for the compound CCn1nc(C(C)(C)C)cc1C(=O)Nc1nc(OC)cc(OC)n1
0

Please list Plant response rating, Cocklebur recorded for the compound CCn1nc(C(C)(C)C)cc1C(=O)Nc1cc(C(=O)OC)cc(C)n1
0

Please list Plant response rating, Cocklebur recorded for the compound CCOC(=O)c1ccc(F)c(NC(=O)c2cc(C(C)(C)C)nn2CC)c1
0

###

Rice plant response rating values by entry
test system: rice; experiment: Test B flooded paddy test; assay type: in vivo, Oryza sativa; details: 125 g ai/ha, scale 0 to 100 (0 no effect, 100 complete control)
Number, no unit, nothing else.

// below: answered compounds
Compound	Rice plant response rating
CC(C)(C)n1nc(Br)c(C(=O)Nc2cccc(C(=O)NC3CC3)c2)n1 [Compound 435]	0
CCNC(=O)c1cccc(NC(=O)c2nn(C(C)(C)C)nc2Br)c1 [Compound 434]	70
C=Cc1nn(C(C)(C)C)nc1C(=O)Nc1cccc(C(=O)N(C)C)c1 [Compound 445]	80

Please list Rice plant response rating recorded for the compound C=CCNC(=O)c1ccc(F)c(N(C(C)=O)C(=O)c2cc(C(C)(C)C)nn2CC)c1 [Compound 443]
70
